Value source: patent US20200276211A1

# test summary: Chemical stability in PBS buffer
# Assay type: physicochemical
# assay setup: PBS pH 7, 37° C., read-out: Chem stability (t ½ @ pH = 7)
# half-life at 1 µM per record follows

- smiles structure: "C[C@H](CCCC(C)(C)O)[C@H]1CC[C@H]2[C@@H]3CC=C4C[C@@H](OC(=O)CCC(=O)O)CC[C@]4(C)[C@H]3CC[C@]12C"
  half-life at 1 µM: "> 500 min"

Okay, now this molecule:
Give its half-life at 1 µM value. Item: C[C@H](CCCC(C)(C)O)[C@H]1CC[C@H]2[C@@H]3CC=C4C[C@@H](OC(=O)OCC[N+](C)(C)C)CC[C@]4(C)[C@H]3CC[C@]12C.[I-]
> 500 min
